Listing of recorded solubility kinetic at 2 h by entry.
Assay: Determination of Kinetic Solubility
Format: physicochemical
Settings: phosphate-buffered saline, aqueous buffer, kinetic from dmso stock; PBS pH 7.4, 2% final DMSO, 25° C., two hours; effective range approximately 2-400 μM
Measure Name: solubility kinetic at 2 h (µM)

> print(dat)
                                    molecule  units.of.measure  qualifier.symbol  obs.value
 1  NCCC[C@H](NC(=O)CCCSc1ccccc1)C(=O)N[C@@H](CC(=O)O)C(=O)O.O=C(O)C(F)(F)F                µM                 =        383
 2                  O=C(CCCSc1ccccc1)OCCOCCO                µM                 =        385
 3  CN1CCN(CCOC(=O)CCCSc2ccccc2)CC1.O=C(O)C(F)(F)F                µM                 >        400
 4                  O=C(CCCSc1ccccc1)OCCNCCO                µM                 >        400
 5   O=C(O)C[C@@H](NC(=O)CCCSc1ccccc1)C(=O)O                µM                 =        387
 6  CN1CCC(C)(OC(=O)CCCSc2ccccc2)CC1.O=C(O)C(F)(F)F                µM                 >        400
 7   Cl.NCCC[C@@H](NC(=O)CCCSc1ccccc1)C(=O)O                µM                 =        383
 8  O=C(O)CC[C@H](NC(=O)[C@H](CO)NC(=O)CCCSc1ccccc1)C(=O)O                µM                 >        400
 9  NCCCC[C@@H](N)C(=O)NCCOC(=O)CCCSc1ccccc1.O=C(O)C(F)(F)F.O=C(O)C(F)(F)F                µM                 =        399
10        CN1CC2(CC(OC(=O)CCCSc3ccccc3)C2)C1                µM                 ≥        400
11  NCCC[C@@H](NC(=O)CCCSc1ccccc1)C(=O)N[C@H](CCC(=O)O)C(=O)O.O=C(O)C(F)(F)F                µM                 =        391
12  NCCC[C@@H](NC(=O)[C@@H](CCC(=O)O)NC(=O)CCCSc1ccccc1)C(=O)O.O=C(O)C(F)(F)F                µM                 >        400
13  O=C(O)CC[C@@H](NC(=O)CCCSc1ccccc1)C(=O)O                µM                 =        396
14   O=C(O)C[C@@H](OC(=O)CCCSc1ccccc1)C(=O)O                µM                 >        400
15  CC(C)[C@@H](N)C(=O)NCCCOC(=O)CCCSc1ccccc1                µM                 =        390
16     C[N+](C)(C)CCOC(=O)CCCSc1ccccc1.[Cl-]                µM                 =        398
17  C[C@H](CN(C)C)OC(=O)CCCSc1ccccc1.O=C(O)C(F)(F)F                µM                 =        362
18  O=C(CCCSc1ccccc1)O[C@@H]1CCNC1.O=C(O)C(F)(F)F                µM                 >        400
19  O=C(CCCSc1ccccc1)OCC(O)CO (stereo not drawn)                µM                 >        400
20  CCN1CCC(OC(=O)CCCSc2ccccc2)CC1.O=C(O)C(F)(F)F                µM                 >        400
21  N[C@@H](COC(=O)CCCSc1ccccc1)C(=O)N[C@H](CCC(=O)O)C(=O)O.O=C(O)C(F)(F)F                µM                 >        400
